System: NCI-H1666
experimental-details: relative viability (nuclei count vs DMSO), 5 days (fraction); higher = more cells survive
condition-summary: first compound 0.000632 µM
reported-property: relative viability

{"compound": "CC(=O)O[C@@]12CO[C@@H]1C[C@H](O)[C@@]1(C)C(=O)[C@H](O)C3=C(C)[C@@H](OC(=O)[C@H](O)[C@@H](NC(=O)OC(C)(C)C)c4ccccc4)C[C@@](O)([C@@H](OC(=O)c4ccccc4)[C@H]21)C3(C)C [Docetaxel] + Cc1nc(Nc2ncc(C(=O)Nc3c(C)cccc3Cl)s2)cc(N2CCN(CCO)CC2)n1 [Dasatinib] (partner 0.075 µM)", "reported-property": "relative viability", "recorded-value": 0.594}
